So I've got a bunch of compounds here, and I need their DC50 values.
- SUBJECT_OF_TEST: BTK (Homo sapiens)
- MEASUREMENT_PROTOCOL: Degradation of BTK protein in Namalwa cells (Western blot; DC50, Dmax)
- SETUP_CONDITIONS: BTK degradation; cell line not given

## Input Reported DC50, compound NC(=O)c1c(-c2ccc(Oc3ccccc3)cc2)nn2c1NCCC2C1CCN(CC2CCN(C(=O)N3CCN(C4CCN(c5ccc6c(c5)C(=O)N(C5CCC(=O)NC5=O)C6=O)CC4)CC3)CC2)CC1 (stereo not shown) : ____
## Output 10 to 50 nM

The following compounds each have a reported value; give each one's DC50.
1. NC(=O)c1c(-c2ccc(Oc3ccccc3)cc2)nn2c1NCCC2C1CCN(C2CCN(C(=O)N3CCC(CC4CCN(c5ccc6c(c5)C(=O)N(C5CCC(=O)NC5=O)C6=O)CC4)CC3)CC2)CC1 (stereo not shown)
2. Nc1ncnc2c1c(-c1ccc(Oc3ccccc3)cc1)nn2C1CCN(C2CCN(CCC3CCN(c4ccc5c(c4)C(=O)N(C4CCC(=O)NC4=O)C5=O)CC3)CC2)CC1 (stereo not shown)
3. Nc1ncnc2c1c(-c1ccc(Oc3ccccc3)cc1)nn2C1CCN(C2CCN(C(=O)N3CCC(CCC4CCN(c5ccc6c(c5)C(=O)N(C5CCC(=O)NC5=O)C6=O)CC4)CC3)CC2)CC1 (stereo not shown)
4. NC(=O)c1c(-c2ccc(Oc3ccccc3)cc2)nn2c1NCC[C@H]2C1CCN(CC2CCN(CCN3CCN(c4ccc5c(c4)C(=O)N(C4CCC(=O)NC4=O)C5=O)CC3)CC2)CC1 (stereo partly shown)
5. NC(=O)c1c(-c2ccc(Oc3ccccc3)cc2)nn2c1NCCC2C1CCN(CC2CCN(CCC3CCN(c4ccc5c(c4)CN(C4CCC(=O)NC4=O)C5=O)CC3)CC2)CC1 (stereo not shown)
6. NC(=O)c1c(-c2ccc(Oc3ccccc3)cc2)nn2c1NCCC2C1CCN(C(=O)N2CCN(CCN3CCC(c4ccc5c(c4)C(=O)N(C4CCC(=O)NC4=O)C5=O)CC3)CC2)CC1 (stereo not shown)
7. NC(=O)c1c(-c2ccc(Oc3ccccc3)cc2)nn2c1NCC[C@H]2C1CCN(C2CCN(CCN3CCC(c4ccc5c(c4)C(=O)N(C4CCC(=O)NC4=O)C5=O)CC3)CC2)CC1 (stereo partly shown)

## Output
1: 10 to 50 nM; 2: 10 to 50 nM; 3: 10 to 50 nM; 4: > 50 nM; 5: > 50 nM; 6: 10 to 50 nM; 7: 10 to 50 nM

Required: DC50, one value per compound below.
1. Nc1ncnc2c1c(-c1ccc(Oc3ccccc3)cc1)nn2C1CCN(C2CCN(CCC3CCN(c4ccc5c(c4)CN(C4CCC(=O)NC4=O)C5=O)CC3)CC2)CC1 (stereo not shown)
2. Nc1ncnc2c1c(-c1ccc(Oc3ccccc3)cc1)nn2C1CCN(CC2CCN(CCCN3CCC(c4ccc5c(c4)CN(C4CCC(=O)NC4=O)C5=O)CC3)CC2)CC1 (stereo not shown)

## Output
["10 to 50 nM", "10 to 50 nM"]

----------
I'd appreciate it if you could supply DC50 values for the items below.
- SUBJECT_OF_TEST: BTK (Homo sapiens)
- MEASUREMENT_PROTOCOL: BTK degradation, DC50 and Dmax of Table 1 (cell line not given)
- Format: cell-based
- Parameters: endogenous in cells
- SETUP_CONDITIONS: concentration giving 50% reduction of BTK expression level

Here's what some known entries look like.
## Input # query: DC50 of entry Nc1ncnc2c1c(-c1ccc(Oc3ccccc3)cc1)nn2[C@@H]1CCCN(C2CCN(C(=O)N3CCC(N4CCN(c5ccc6c(c5)C(=O)N(C5CCC(=O)NC5=O)C6=O)CC4)CC3)CC2)C1 (some centres unmarked)
## Output 10 to 50 nM

## Input Which DC50 value is on record for Nc1ncnc2c1c(-c1ccc(Oc3ccccc3)cc1)nn2[C@@H]1CCCN(C2CCN(C(=O)N3CCC(CC4CCN(c5ccc6c(c5)C(=O)N(C5CCC(=O)NC5=O)C6=O)CC4)CC3)CC2)C1 (some centres unmarked) ?
## Output 10 to 50 nM

## Input Name the reported DC50 value associated with the compound Nc1ncnc2c1c(-c1ccc(Oc3ccccc3)cc1)nn2C1CCN(CCOCCOCCN2CCN(c3ccc4c(c3)CN(C3CCC(=O)NC3=O)C4=O)CC2)CC1 (centres unmarked)
## Output < 10 nM

## Input Value lookup for DC50; key = Nc1ncnc2c1c(-c1ccc(Oc3ccccc3)cc1)nn2[C@@H]1CCCN(C(=O)N2CCC(CN3CCC(c4ccc5c(c4)C(=O)N(C4CCC(=O)NC4=O)C5=O)CC3)CC2)C1 (some centres unmarked)
## Output 10 to 50 nM

More entries:
## Input Find the recorded DC50 belonging to Nc1ncnc2c1c(-c1ccc(Oc3ccccc3)cc1)nn2[C@@H]1CCCN(CC2CCN(CCN3CCC(c4ccc5c(c4)CN(C4CCC(=O)NC4=O)C5=O)CC3)CC2)C1 (some centres unmarked) and report it.
## Output < 10 nM

----------
Give measured DC50 for each item. Keep answers brief.
- SUBJECT_OF_TEST: BTK (Homo sapiens, UniProt Q06187)
- Sequence (Q06187 whole entry): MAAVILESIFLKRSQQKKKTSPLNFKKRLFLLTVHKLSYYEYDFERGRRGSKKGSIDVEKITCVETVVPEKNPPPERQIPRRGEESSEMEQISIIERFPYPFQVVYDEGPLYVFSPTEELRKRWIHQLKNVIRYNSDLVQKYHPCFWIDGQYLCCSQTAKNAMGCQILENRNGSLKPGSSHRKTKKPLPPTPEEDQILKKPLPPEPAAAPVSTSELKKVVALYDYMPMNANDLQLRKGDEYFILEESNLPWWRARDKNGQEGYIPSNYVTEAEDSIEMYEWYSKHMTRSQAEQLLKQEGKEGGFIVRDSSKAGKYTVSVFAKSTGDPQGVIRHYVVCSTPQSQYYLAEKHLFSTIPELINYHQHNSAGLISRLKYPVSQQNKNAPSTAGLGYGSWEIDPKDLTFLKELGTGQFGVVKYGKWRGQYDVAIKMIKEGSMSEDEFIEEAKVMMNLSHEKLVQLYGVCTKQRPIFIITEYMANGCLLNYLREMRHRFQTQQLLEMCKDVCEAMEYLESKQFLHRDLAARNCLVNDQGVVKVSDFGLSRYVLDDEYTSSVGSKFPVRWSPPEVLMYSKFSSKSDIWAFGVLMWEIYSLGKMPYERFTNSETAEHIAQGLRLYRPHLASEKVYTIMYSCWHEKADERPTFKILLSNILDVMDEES
- MEASUREMENT_PROTOCOL: Degradation of BTK protein in Namalwa cells (Western blot; DC50, Dmax)
- SETUP_CONDITIONS: read-out: DC50 (BTK degradation); concentration giving 50% reduction of BTK expression level; cell line not given

## Input Record request: DC50 value, item Nc1ncnc2c1c(-c1ccc(Oc3ccccc3)cc1)nn2[C@@H]1CCCN(CCNC(=O)NC2CCC(=O)NC2=O)C1 (stereo partly drawn)
## Output 10 to 50 nM

## Input # input compound: Nc1ncnc2c1c(-c1ccc(Oc3ccccc3)cc1)nn2C1CCN(C2CCN(CCN3CCN(c4ccc(NC5CCC(=O)NC5=O)cc4)CC3)CC2)CC1 (stereo not drawn) ; wanted: its DC50
## Output < 10 nM

Give DC50 for all compounds that follow.
1. Nc1ncnc2c1c(-c1ccc(Oc3ccccc3)cc1)nn2[C@@H]1CCCN(C2CCN(C(=O)N3CC(N4CCN(c5ccc6c(c5)CN(C5CCC(=O)NC5=O)C6=O)CC4)C3)CC2)C1 (stereo partly drawn)
2. Nc1ncnc2c1c(-c1ccc(Oc3ccccc3)cc1)nn2C1CCN(C2CCN(CCN3CCN(c4ccc(N5CCC(=O)NC5=O)cc4)CC3)C2)CC1 (stereo not drawn)
3. Nc1ncnc2c1c(-c1ccc(Oc3ccccc3)cc1)nn2C1CCN(C2CCN(CC3CCN(c4ccc5c(c4)CN(C4CCC(=O)NC4=O)C5=O)CC3)C2)CC1 (stereo not drawn)
4. Nc1ncnc2c1c(-c1ccc(Oc3ccccc3)cc1)nn2C1CCN(CC2CCN(CC3CCN(c4ccc5c(c4)CN(C4CCC(=O)NC4=O)C5=O)C3)C2)CC1 (stereo not drawn)

## Output
1. < 10 nM
2. < 10 nM
3. 10 to 50 nM
4. 10 to 50 nM

----------
- SUBJECT_OF_TEST: BTK (Homo sapiens, UniProt Q06187)
- MEASUREMENT_PROTOCOL: BTK degradation, DC50 and Dmax of Table 1 (cell line not given)
- Type: cell-based
- Set-up: endogenous in cells
- SETUP_CONDITIONS: concentration giving 50% reduction of BTK expression level
Please provide measured DC50 for the entries that follow.

Example molecules with recorded DC50:
## Input What DC50 value was documented for this molecule, Nc1ncnc2c1c(-c1ccc(Oc3ccccc3)cc1)nn2C1CCN(C(=O)N2CCC(CCCN3CCC(c4ccc5c(c4)C(=O)N(C4CCC(=O)NC4=O)C5=O)CC3)CC2)CC1 (stereo not drawn) ?
## Output > 50 nM

## Input Form field: reported DC50 of Nc1ncnc2c1c(-c1ccc(Oc3ccccc3)cc1)nn2C1CCN(CCOCCN2CCN(c3ccc4c(c3)C(=O)N(C3CCC(=O)NC3=O)C4=O)CC2)CC1 (stereo not drawn)
## Output 10 to 50 nM

Consider now this further molecule.
## Input State the recorded DC50 for this entry: Nc1ncnc2c1c(-c1ccc(Oc3ccccc3)cc1)nn2C1CCCN(CCOCCN2CCC(c3ccc4c(c3)CN(C3CCC(=O)NC3=O)C4=O)CC2)C1 (stereo not drawn)
## Output 10 to 50 nM

----------
What DC50 was measured for each of the following?
- SUBJECT_OF_TEST: BTK (Homo sapiens, UniProt Q06187)
- MEASUREMENT_PROTOCOL: Degradation of BTK protein in Namalwa cells (Western blot; DC50, Dmax)
- SETUP_CONDITIONS: BTK degradation; cell line not given

## Input So what's the measured DC50 for this one? Nc1ncnc2c1c(-c1ccc(Oc3ccccc3)cc1)nn2C1CCN(CC2CCN(CCCN3CCN(c4ccc5c(c4)C(=O)N(C4CCC(=O)NC4=O)C5=O)CC3)CC2)CC1 (stereo not shown)
## Output > 50 nM

## Input Which DC50 is reported for this compound? Nc1ncnc2c1c(-c1ccc(Oc3ccccc3)cc1)nn2[C@@H]1CCCN(C2CCN(C(=O)N3CCC(CCCN4CCC(c5ccc6c(c5)C(=O)N(C5CCC(=O)NC5=O)C6=O)CC4)CC3)CC2)C1 (stereo partly shown)
## Output 10 to 50 nM

Quick batch: DC50 for everything below.
1. NC(=O)c1c(-c2ccc(Oc3ccccc3)cc2)nn2c1NCC[C@H]2C1CCN(C(=O)N2CCC(CCN3CCC(c4ccc5c(c4)CN(C4CCC(=O)NC4=O)C5=O)CC3)CC2)CC1 (stereo partly shown)
2. Nc1ncnc2c1c(-c1ccc(Oc3ccccc3)cc1)nn2C1CCN(C2CCN(C(=O)N3CCN(CCCC4CCN(c5ccc6c(c5)C(=O)N(C5CCC(=O)NC5=O)C6=O)CC4)CC3)CC2)CC1 (stereo not shown)

## Output
1: 10 to 50 nM; 2: > 50 nM
